testTarget: LsrK (Salmonella typhimurium, UniProt Q8ZKQ6)
Sequence (Q8ZKQ6 whole entry): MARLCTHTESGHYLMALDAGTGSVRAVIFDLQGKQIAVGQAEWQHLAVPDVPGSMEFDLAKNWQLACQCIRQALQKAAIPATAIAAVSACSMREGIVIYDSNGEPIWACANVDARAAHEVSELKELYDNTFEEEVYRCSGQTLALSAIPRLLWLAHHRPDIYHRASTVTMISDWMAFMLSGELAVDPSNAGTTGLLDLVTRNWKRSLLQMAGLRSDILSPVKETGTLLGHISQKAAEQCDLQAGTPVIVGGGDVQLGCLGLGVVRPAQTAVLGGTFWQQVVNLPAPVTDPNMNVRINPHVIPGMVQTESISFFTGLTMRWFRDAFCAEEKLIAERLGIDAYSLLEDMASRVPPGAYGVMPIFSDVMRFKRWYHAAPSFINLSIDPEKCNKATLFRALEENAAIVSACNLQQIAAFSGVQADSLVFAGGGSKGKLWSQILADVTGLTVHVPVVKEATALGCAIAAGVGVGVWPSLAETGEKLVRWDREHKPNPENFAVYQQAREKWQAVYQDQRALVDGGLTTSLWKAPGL
experimentalProtocol: biochemical
Type: biochemical, S. typhimurium
assayConditions: 50 µM
Exercise: for every item that follows, state its recorded Inhibition (%).
Give bare numbers.

1. NC(C(=O)O)C(O)C(=O)O (stereo not drawn) [d.l-threo-3-HYDROXYASPARTIC ACID]
3
2. Cc1cc(C(C)(C)CC(C)(C)C)ccc1OCCOCC[N+](C)(C)Cc1ccccc1.[Cl-] [METHYLBENZETHONIUM CHLORIDE]
89
3. Cc1c(S(=O)(=O)[O-])oc2c1C(=O)C(=O)c1c-2ccc2c1CCCC2(C)C.[Na+] [TANSHINONE IIA SULFONATE SODIUM]
55
4. Nc1nc[nH]n1
1
5. O=c1cc(-c2ccc(O)cc2)oc2cc(O)ccc12 [7.4'-DIHYDROXYFLAVONE]
1

Need Inhibition (%) for each of these compounds.
1. O=C(/C=C/c1ccc(O)cc1)c1ccccc1O [2'.4-DIHYDROXYCHALCONE]
2. NC(N)=NC(=O)c1nc(Cl)c(N2CCCCCC2)nc1N [N.N-HEXAMETHYLENEAMILORIDE]
3. C=CC(C1=CC(=O)C(OC)=CC1=O)c1ccc(OC)cc1 (stereo not shown)
4. CCOc1nc2cccc(C(=O)OC(C)OC(=O)OC3CCCCC3)c2n1Cc1ccc(-c2ccccc2-c2nn[nH]n2)cc1 (stereo not shown) [CANDESARTAN CILEXTIL, reference compound]
5. OC[C@H]1O[C@@H](O[C@H]2[C@H](O)[C@@H](O)[C@H](O)O[C@@H]2CO)[C@H](O)[C@@H](O)[C@@H]1O [CELLOBIOSE (D[+])]

// result
1. 58
2. 1
3. 98
4. 101
5. 0

----------
Exercise: for every item that follows, state its recorded Inhibition (%).
testTarget: UniProt Q8ZKQ6
experimentalProtocol: biochemical
Assay type: biochemical, S. typhimurium
assayConditions: 50 µM

Known Inhibition (%) results, listed for orientation:
1. O=c1cc(-c2ccccc2O)oc2cc(O)ccc12 [7.2'-DIHYDROXYFLAVONE]
76
2. CC(=O)O[C@H]1[C@H]2[C@@H](OC(=O)Cc3ccccc3)[C@@H](C)C[C@]2(OC(C)=O)C(=O)/C(C)=C/[C@@H]2[C@H](CC[C@@]13CO3)C2(C)C
1
3. COc1cc(OC)c(C(=O)CCCN2CCCC2)c(OC)c1.Cl [BUFLOMEDIL HYDROCHLORIDE]
1
4. C1CCN2C[C@@H]3C[C@@H](CN4CCCC[C@@H]34)[C@H]2C1.I [SPARTEINE HYDROIODIDE]
1

Need Inhibition (%) for each of these compounds.
1. COc1cc2c(cc1OC)[C@@H]1C(=O)c3c(O)cc4c(c3O[C@@H]1CO2)C=CC(C)(C)O4
2. CCC(Cc1c(I)cc(I)c(N)c1I)C(=O)O (stereo not shown)
3. CC(=O)O[C@H]1CC[C@]2(C)[C@H]3CC=C4[C@@H]5CC(C)(C)CC[C@]5(C(=O)O)CC[C@@]4(C)[C@]3(C)CC[C@H]2C1(C)C [OLEANOLIC ACID ACETATE]

// result
1: 10; 2: 16; 3: 14

----------
testTarget: LsrK (Salmonella typhimurium)
experimentalProtocol: biochemical
Format: biochemical, S. typhimurium
Counter-ions that a name gives are not always drawn.
testReadout: inhibition at 50 µM (%)
Numbers only, in %.

1. CCCC1O[C@@H]2C[C@H]3[C@@H]4CCC5=CC(=O)C=C[C@]5(C)[C@H]4[C@@H](O)C[C@]3(C)[C@]2(C(=O)CO)O1 (stereo partly shown) [BUDESONIDE]
2
2. CC(C)(N)Cc1ccccc1 [PHENTERMINE]
15
3. O=C(O)C1CCCNC1 (stereo not shown) [NIPECOTIC ACID]
0

Need inhibition at 50 µM for each of these compounds.
1. CC(COc1ccccc1)NC(C)C(O)c1ccc(O)cc1 (stereo not shown) [ISOXSUPRINE HYDROCHLORIDE]
2. COc1cc(OC)c2c(=O)cc(-c3ccccc3)oc2c1 [CHRYSIN DIMETHYL ETHER]

// result
1. 2
2. 1

----------
Exercise: for every item that follows, state its recorded inhibition at 50 µM.
testTarget: LsrK (Salmonella typhimurium, UniProt Q8ZKQ6)
experimentalProtocol: biochemical
Format: biochemical, S. typhimurium
Counter-ions that a name gives are not always drawn.
Answers are plain numbers, in %.

1. CC(C)(C(=O)O)c1ccc(C(O)CCCN2CCC(C(O)(c3ccccc3)c3ccccc3)CC2)cc1 (stereo not drawn) [FEXOFENADINE HYDROCHLORIDE]
0
2. CN(C)CCCN1c2ccccc2Sc2ccccc21 [PROMAZINE HYDROCHLORIDE]
3
3. COc1ccc(C2CNC(=O)C2)cc1OC1CCCC1 (stereo not drawn)
1
4. CC(=O)Oc1cc(-c2coc3cc(OC(C)=O)c(OC(C)=O)c(OC(C)=O)c3c2=O)cc(OC(C)=O)c1OC(C)=O [IRIGINOL HEXAACEATATE]
114
5. S=C=NCc1ccccc1 [BENZYL ISOTHIOCYANATE]
2

Need inhibition at 50 µM for each of these compounds.
1. O=C(O)P(=O)(O)O [FOSCARNET SODIUM]
2. C=C[C@H]1CN2CC[C@H]1C[C@H]2[C@H](O)c1ccnc2ccccc12
3. C[N+](C)(C)CCCCCC[N+](C)(C)C [HEXAMETHONIUM BROMIDE]
4. O=C(Nc1ccc([N+](=O)[O-])cc1Cl)c1cc(Cl)ccc1O [NICLOSAMIDE]

// result
[1, 0, 2, 0]

----------
testTarget: LsrK (Salmonella typhimurium, UniProt Q8ZKQ6)
experimentalProtocol: biochemical
Type: biochemical, S. typhimurium
Structures can show the parent of a compound that is named as a salt.
testReadout: inhibition at 50 µM (%)
One number for each entry, in %.

Need inhibition at 50 µM for each of these compounds.
1. CN1[C@@H]2CC[C@H]1C[C@@H](OC(=O)C(CO)c1ccccc1)C2 (some centres unmarked) [ATROPINE SULFATE]
2. CCCCN(CCCC)CCCOC(=O)c1ccc(N)cc1
3. CC(=O)Nc1cccc(O)c1

// result
1: 3; 2: 3; 3: 1

Need inhibition at 50 µM for each of these compounds.
1. CN1C[C@H](CNC(=O)OCc2ccccc2)C[C@@H]2c3cccc4c3c(cn4C)C[C@H]21
2. COc1cc(C)c(C(=O)Oc2cc(C)c(C(=O)O)c(O)c2C)c(OC)c1C [D[…]]
3. O=c1c(O)c(-c2ccc(O)c(O)c2)oc2cc(O)cc(O)c12
4. CN(C)/N=N/c1[nH]cnc1C(N)=O
5. CO[C@H]1C[C@H](O[C@@H]2/C(C)=C/C[C@@H]3C[C@@H](C[C@]4(CC[C@H](C)[C@@H](C5CCCCC5)O4)O3)OC(=O)[C@@H]3C=C(C)/C(=N/O)[C@H]4OC/C(=C\C=C\[C@@H]2C)[C@]43O)O[C@@H](C)[C@@H]1O

// result
3
35
22
3
0

Need inhibition at 50 µM for each of these compounds.
1. Cc1ccc2c(Cl)cc(Cl)c(O)c2n1
2. CN1C(C)(C)CCCC1(C)C [PEMPIDINE TARTRATE]
3. CC(=O)N[C@@H](Cc1c[nH]c2ccccc12)C(N)=O [ACETYLTRYPTOPHANAMIDE]
4. COC1=C(OC)C(=O)C(C/C=C(\C)CC/C=C(\C)CC/C=C(\C)CC/C=C(\C)CC/C=C(\C)CC/C=C(\C)CC/C=C(\C)CC/C=C(\C)CC/C=C(\C)CCC=C(C)C)=C(C)C1=O
5. Cc1ccccc1OCC(O)CO (centres unmarked)

// result
1: 0; 2: 2; 3: 1; 4: 1; 5: 1

Need inhibition at 50 µM for each of these compounds.
1. CC(C)NNC(=O)c1ccncc1 [[…]]
2. CN(C)[C@@H]1C(O)=C(C(N)=O)C(=O)[C@@]2(O)C(O)=C3C(=O)c4c(O)ccc(Cl)c4[C@@](C)(O)[C@H]3C[C@@H]12 [CHLORTETRACYCLINE HYDROCHLORIDE]
3. C=C(CC)C(=O)c1ccc(OCC(=O)O)c(Cl)c1Cl
4. CC(C)(O/N=C(\C(=O)N[C@@H]1C(=O)N2C(C(=O)[O-])=C(C[n+]3ccccc3)CS[C@H]12)c1csc(N)n1)C(=O)O

// result
1: 0; 2: 77; 3: 85; 4: 70

----------
testTarget: LsrK (Salmonella typhimurium, UniProt Q8ZKQ6)
experimentalProtocol: biochemical
Assay type: biochemical, S. typhimurium
Exercise: for every item that follows, state its recorded IC50.
Numbers only, in µM.

Known IC50 results, listed for orientation:
1) C[C@]1(OC(=O)/C=C/c2ccccc2)C[C@@H](O)[C@]2(O)C=CO[C@@H](O[C@@H]3O[C@H](CO)[C@@H](O)[C@H](O)[C@H]3O)[C@@H]21 [HARPAGOSIDE]
10
2) O=C(O)c1cc(O)c(=O)c2c(O)c(O)ccc2c1 [7-DESHYDROXYPYROGALLIN-4-CARBOXYLIC ACID]
7

Please examine the following record next.
// query What measured IC50 goes with CC1=C(O)C(=O)C=C2C1=CC=C1[C@@]2(C)CC[C@@]2(C)[C@@H]3C[C@](C)(C(=O)O)CC[C@]3(C)CC[C@]12C [CELASTROL] ?
// result 4
